Molecular target: T1, 4H891-AA
T1 chain: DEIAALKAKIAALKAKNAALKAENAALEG
Experiment: two-hybrid library CCmax;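 also: natural log of median RNA to DNA barcode read ratio; higher means stronger binding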
Conditions: mean of both orientations
value_type: interaction score

• DEIAALEAKNAALKAEIAALKAEIAALKG [4H458-AA] = -1.67
• DENAALEAKNAALKAEIAALEAKIAALKG [4H1478-AA] = -1.45
• DEIAALEAENAALEAKIAALKAKIAALKG [4H174-AA] = -0.401
• DKNAALEAEIAALEAKIAALKAKNAALKG [4H3120-AA] = -0.991
• DKIAALEAKNAALEAEIAALEAKIAALKG [4H2438-AA] = -1.67
• DKNAALKAEIAALKAKNAALEAEIAALEG [4H3697-AA] = -1.55
• DEIAALKAENAALKAEIAALEAKIAALKG [4H710-AA] = -1.65

Where do these numbers come from? They come from paper PMC10397247.
